protocol: yeast display, Sf9 membrane polyspecificity reagent, FACS + sequencing; frameworks hold sequencing errors
observed.property: polyreactivity (PSR sort gate)

Some entries whose results are on file:
# biosequence, polyreactivity (PSR sort gate)
data = [
    ("QVQLVESVVGLVQAGGSLRLSCAASGRIFAYYAMGWYRQAPGKERELVAAISSSGGGTYYADSVKGRFTISRDNAKNTVYLQMNSLKPEDTAVYYCAKRVRRKYSVSHPYDYWGQGTQVTVSS", "high polyreactivity"),
    ("QVQLVESGGGLVQAGGSLRLSCAASGSTFYSYVMGGYRQAPGKERELVAAISKRGTSTYYADSVKGRFTISRDNAKYTVYLQMNSLKPEDNAVYYCAARPIVGVYPDIYDYWGHGTQVTVSS", "low polyreactivity"),
    ("QVQHVESGGGLVQAGGSLLLSCAASGSTFARYAMGWYRQPPGKERELVAAISRSGSNTYYADSVKGRFTISRDNAKNTVYLQMNSLKPEDTAVYYCNRTHRQSFSKLDYWGQGTQVTVSS", "high polyreactivity"),
    ("QVQLVESGGGLVQAGGSLRLSCAASGYTFRWYAMGWYRQAPGKERELVAAISWSTGRTYYADSVKGRFTISRDNAKNTVYLQMNSLKPEDNAVYYCAASYYVYSGGNYLRYDSWGQGTQVTVSS", "high polyreactivity"),
]

INPUT: Give the measured polyreactivity (PSR sort gate) of `QVQLVESGGGLVQAGGSLRLSCAASGSTFGDYAMGWFRQAPGKERELVAAMNSGDSRNYADSVKGRFTISRDNAKNTVYLQMNSLKPEDTAVYYCAAEPWSISYVYYKYKYESWGQGTQVTVSS` .
OUTPUT: low polyreactivity

INPUT: Give the measured polyreactivity (PSR sort gate) of `QVQLVESGGGLVQAGGSLRLSCAASGRIFALNAMVWYRQAPGKERELVAAITWGGGSTYYADSVKGRFTISRDNAKNTVYLQMNSLKPEDTAVYYCAADVPSRVYTVISVEVEYWGQGTQVTVSS` .
OUTPUT: low polyreactivity

---

protocol: yeast display, Sf9 membrane polyspecificity reagent, FACS + sequencing; frameworks hold sequencing errors
observed.property: polyreactivity (PSR sort gate)

# biosequence, polyreactivity (PSR sort gate)
data = [
    ("QVQLVESRGGLVQAGGSLRLRCAASGFIFGYNVMGWYRQAPGKERELVASISTGGRTYYADSVKGRFTISRDNAKNTVYLQMNSLKPEDTAVYYCAARYRSYSYLYYSWGQGTQVTVSS", "high polyreactivity"),
    ("QVQLVESGGGLVQAGGSLRLSCAASGGIFYSNAMGWYRPAPGKERELVAAISRDGTITYYADSVKGRFTISRDNAKNTVYLQMNSLKPEDTAVYYCAADASIQSWYSIYDYWGQGTQVTVSS", "high polyreactivity"),
    ("QVQLVESGGGLVQAGGSLRLSCAASGRTFYSYAMGWYRQAPGKERELVAAISASGGRTYYADSVKGRFTISRDNAKNTVYLQMNSLKPEDTAVYYCAAYPWYRMWGQGTQVTVSS", "high polyreactivity"),
    ("QVQLVESGGGLVQAGGSLRLSCAASGGILVFYALGWYRQSPGKERELVAAINVSGGSTYYADSVKGRFTISRDNAKNTVYLQMNSLKPEDTAVYYCAALGPYLDYGVQYGYWGQGTQVTVSS", "low polyreactivity"),
    ("QVQLVESGGGLVQAGGSLRLSCAASGSTFRYYAMGWYRQAPGKERELVAAISGSGGRTYYADSVKGRFTISRDNAKNTVYLQMYSLKPEDTAVYYCNTRGRRTDYDYWGQGTQVTVSS", "high polyreactivity"),
    ("QVQLVESGGGLVQAGGSLRLSCAASGTYYLYAMGWYRQAPRKERELVAAISGSGSTNYADSVKGRFTISRDNAKNTVYLQMNSLKPEDTAVYYCAAYQRYVSVTGARYEYDYWGQGTQVTVSS", "low polyreactivity"),
    ("QVQLVESGGGLVQAGGSLRLSCAASGSTFYLYAMGWYRQAPGKERELVAAISWSGGDTYYADSVKGRFTISRDNANNTVYLQMTSLKPEDSAVYYCAAEITYSYPGSPRRRDYWGQGTQVTVSS", "low polyreactivity"),
    ("QVQLVQSGGGFVQAGGSLRVSCAASGRTFGVYAMGWYRQAPGKEREFVAAISYSGGRTYYADSVKGRFTISRDNAKNTVYLQMNSLKPEDTAVYSCNARAFPYYRRFDYWGQGTQVTVSS", "high polyreactivity"),
    ("QVQLVESGGGLVQAGGSLRLSCAASGSTFLFYAMGWYRQAPGKERELVAAISSSGTSTYYADSVKGRFTISRDNAKNTVYLQMNSLKPEDTAVYYCAAVDPYERYVYWGQGTQVTVSS", "low polyreactivity"),
    ("QVQLVESGGGLVQAGGSLRLSCAASGIISYLYAMGWYRQAPGKERELVAVIRTSDAITYYADSVKGRFTISRDNAKNTVYLQMISLKPEDTAVYYCAAEDVYEYDYWGQGTQVTVSS", "high polyreactivity"),
]

INPUT: Give the measured polyreactivity (PSR sort gate) of `QVQLVESGGGLVQAGGSLRLSCAASGSTFVYYAMGWYRQAPGKERALVASITTSAGSTYYADSVKGRFTISRDTAKNSVYLQMNSLKPEDTAVYYCNARITITYYYWGQGTQVTVSS` .
OUTPUT: high polyreactivity

---

protocol: yeast display, Sf9 membrane polyspecificity reagent, FACS + sequencing; frameworks hold sequencing errors
observed.property: polyreactivity (PSR sort gate)

Some entries whose results are on file:
# biosequence, polyreactivity (PSR sort gate)
data = [
    ("QVQLVESGGGLVQAGGRLRLSCAASGFTFTPYAMGWYRQAPGTERELVAAISWGDGSTYYADSVKGRFTISRDNAKNTVYLQMNSLKPEDTAVYYCAAYRGPRIYRYDYWGQGTQVTVSS", "high polyreactivity"),
    ("QVQLVESGGGLVQAGGSLRLSCAASGSTFSRYAMGWYRQAPGKERELVAAISWRGGRTYYADSVKGRFTISRDNAKNTVYLPMNSLKPEDTAVYYCNAVSSFTSPRYAYWGQGTQVTVSS", "high polyreactivity"),
    ("QVQLVESGGGLVQAGGSLRLSCAASGLIFRWYAMGWYRQAPGKETELVAAINYSGGRTYYADSVKGRFTISRDNAKNTVYLQMNSLKPEDTAVYYCNAVAVPSTYDYWGQGTQVTVSS", "low polyreactivity"),
    ("QVQLVESGGGLVQAGGSLRLSCAASGIIFYDYAMGWYRQAPGKERELVAAISSSGGRTYYADSVKGRFTISRDNAKNTVYLQMNSLNPEDTAFYYCATVSSIYRVRSTSIRYNYWGQGTQVTVSS", "high polyreactivity"),
    ("QVQLVESGGGIVQAGGSLRLSCAASGITIQGYTMGWYRQEPGKERELVAAISSNGGRTYYADSVKGSFTISRDNAKNTVYLQMNSLKPEDTAVDYCAARKWRLIVDYWGEGTQVTVSS", "high polyreactivity"),
]

INPUT: Give the measured polyreactivity (PSR sort gate) of `QVQLVESGGGLVQAGGSLRLSCAASGGTFYVYAMGWYRQAPGKERELVAAISTSDGITYYADSVKGRFTLSRDNAKNTVYLQMNSLKPEDTAVYYCAAEFFSSFTYAYDYWGQGTQVTVSS` .
OUTPUT: high polyreactivity

INPUT: Give the measured polyreactivity (PSR sort gate) of `QVQLVESGGGLVQAGGSLRLSCAASGGTFSKYAMGWYRQAPGKEREFVAAITVSGGGTYYADSVKGRFTISRDNAKYTVYLQMNSLKPEDTAVYDCAADLAWTASDYWGQVTQVTVSS` .
OUTPUT: low polyreactivity

INPUT: Give the measured polyreactivity (PSR sort gate) of `QVQLVESGGGLVQAGGSLRLSCAASGRTFSPYMGWSRQAPGKERELVAAISKSGGRTYYADSVKWSFTISRDNAKNTVYLQMNSLQPEDTAVYYCATSGNNYYYALYGYWVQGTQVTVSS` .
OUTPUT: low polyreactivity

INPUT: Give the measured polyreactivity (PSR sort gate) of `QVQLVESGRGLVQAGGSLRLSCAASGFTFRNYAMGWYRQAPGKERELVAAITRRGGSTYYADSVKGRFTISRDNAKNTVYLQMNSLKTEDTAVYYCNADREVPWGKDNLDYWGQGTQVTVSS` .
OUTPUT: high polyreactivity

INPUT: Give the measured polyreactivity (PSR sort gate) of `QVKLVESGGGLVQAGGSLRLSCAAYGSTFAGYAMGWYRQAPGKERELVAAISVSGGSTDYADSVKGRFTISRDNAKNTVYLQMNSLKPEDTAVYYCAAVYVRNQWWRNYYWGQGTQVTVSS` .
OUTPUT: low polyreactivity

INPUT: Give the measured polyreactivity (PSR sort gate) of `QVQLVESGGGLVQAGGSLRLSCAASGFTIRSYVMGWYRQAPGKEREFVAAISYRGGGTNYADSVKGRFTISRDNAKNTVYLQMNSLKPEDSAVYYCNAYIVSNEGDYWGQGTQVTVSS` .
OUTPUT: high polyreactivity

The values you see were collected from the nanobody polyreactivity screen of Harvey et al. (2022).
